The values you see were collected from PubChem BioAssay AID2060885.

Test system: NCI-H23 complex spheroids with HUVEC/MSC, viability
Assay: Anticancer human tumor NCI-H23 cell line growth inhibition [RAS]; active means viability on the fitted dose curve at most 10% of control; inactive means the rest;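 further: spheroids exposed to compound for 7 days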
Conditions: second compound 0.01 µM; first compound 0.316 µM
Outcomes: active, inactive

{"Compound": "CCN1CCN(Cc2ccc(Nc3ncc(F)c(-c4cc(F)c5nc(C)n(C(C)C)c5c4)n3)nc2)CC1 + C=CC(=O)N1CCN(c2nc(OCC3CCCN3C)nc3c(F)c(-c4nc(N)cc(C)c4C(F)(F)F)c(Cl)cc23)C(C)C1", "Label": "inactive"}
{"Compound": "C=CC(=O)Nc1cc(Nc2nccc(-c3cn(C)c4ccccc34)n2)c(OC)cc1N(C)CCN(C)C + C=CC(=O)N1CCN(c2nc(OCC3CCCN3C)nc3c(F)c(-c4nc(N)cc(C)c4C(F)(F)F)c(Cl)cc23)C(C)C1", "Label": "inactive"}
{"Compound": "CC(C)NCC(C(=O)N1CCN(c2ncnc3c2C(C)CC3O)CC1)c1ccc(Cl)cc1 (configuration not stated) + C=CC(=O)N1CCN(c2nc(OCC3CCCN3C)nc3c(F)c(-c4nc(N)cc(C)c4C(F)(F)F)c(Cl)cc23)C(C)C1", "Label": "inactive"}
{"Compound": "CC(=O)OC12COC1CC(O)C1(C)C(=O)C(O)C3=C(C)C(OC(=O)C(O)C(NC(=O)OC(C)(C)C)c4ccccc4)CC(O)(C(OC(=O)c4ccccc4)C21)C3(C)C (configuration not stated) + C=CC(=O)N1CCN(c2nc(OCC3CCCN3C)nc3c(F)c(-c4nc(N)cc(C)c4C(F)(F)F)c(Cl)cc23)C(C)C1", "Label": "inactive"}
{"Compound": "C[C@@H](NC(=O)c1ncnc(N)c1Cl)c1ncc(C(=O)Nc2cc(C(F)(F)F)c(Cl)cn2)s1 + C=CC(=O)N1CCN(c2nc(OCC3CCCN3C)nc3c(F)c(-c4nc(N)cc(C)c4C(F)(F)F)c(Cl)cc23)C(C)C1", "Label": "inactive"}
{"Compound": "Nc1ccn(C2OC(CO)C(O)C2(F)F)c(=O)n1 (configuration not stated) + C=CC(=O)N1CCN(c2nc(OCC3CCCN3C)nc3c(F)c(-c4nc(N)cc(C)c4C(F)(F)F)c(Cl)cc23)C(C)C1", "Label": "active"}
{"Compound": "O=C(c1ccc(F)c(F)c1Nc1ccc(I)cc1F)N1CC(O)([C@@H]2CCCCN2)C1 + C=CC(=O)N1CCN(c2nc(OCC3CCCN3C)nc3c(F)c(-c4nc(N)cc(C)c4C(F)(F)F)c(Cl)cc23)C(C)C1", "Label": "inactive"}
